tested on: Pancreas secretion; assay: Pancreas secretion (rat), i.d. administration; format: in vivo; conditions: intraduodenal, as sodium salt, read-out: Increase in pancreas secretion: significantly effective of [ ]
Quantity Kind: minimal effective dose (mg/kg)
Note: unit mg/kg is implicit; provide only the numeric part.

1) COc1ccc(N(CCCC(=O)O)C(=O)c2ccc(Cl)cc2)cc1 [(3)]: 0.05
2) Cc1cccc(C)c1N(CCCC(=O)O)C(=O)c1ccccc1Cl [(8)]: 0.01

Would you kindly look at the next entry?
For the compound Cc1cccc(C)c1N(CCCC(=O)O)C(=O)c1ccc(Cl)cc1 [(9)] , give its measured minimal effective dose value.
0.01

* * *

test system: Pancreas secretion; assay: Pancreas secretion (rat), i.d. administration; type: in vivo; settings: intraduodenal, as sodium salt, read-out: Increase in pancreas secretion: significantly effective of [ ]
Entries and their measured minimal effective dose follow.
Your answer should be a plain number; it is taken to be in mg/kg.

Example results:
1. CC(=O)N(CCCC(=O)O)c1cccc(Cl)c1: 0.1
2. CCOc1ccc(N(CCCC(=O)O)C(=O)c2ccc(Cl)cc2)cc1: 0.05
3. O=C(O)CCCN(C(=O)c1ccc(Cl)cc1)c1ccc(O)cc1: 0.5

Kindly consider the entry below.
Give the reported minimal effective dose for this compound. COc1ccc(N(CCCC(=O)O)C(=O)c2ccccc2)cc1
0.05

* * *

Measured minimal effective dose accompanies every entry in the list below.
tested on: circulation of blood in internal organs (liver, pancreas); experiment: Blood circulation through internal organs (liver, pancreas); assay type: in vivo; details: Felis catus, iv; cat, i.v. administration, as sodium salt; read-out: Increase in circulation of blood in internal organs (liver, pancreas), effective of

Consider the worked cases shown below.
1. O=C(O)CCCN(C(=O)c1ccc(Cl)cc1)c1ccc(O)cc1: 1 to 5 mg/kg
2. Cc1cccc(C)c1N(CCCC(=O)O)C(=O)c1ccc(Cl)cc1: 1 mg/kg

Specify minimal effective dose for COc1ccc(N(CCCC(=O)O)C(=O)c2ccc(Cl)cc2)cc1 , system circulation of blood in internal organs (liver, pancreas).
1 to 5 mg/kg

Write minimal effective dose of CCOc1ccc(N(CCCC(=O)O)C(=O)c2ccc(Cl)cc2)cc1 ; system used: circulation of blood in internal organs (liver, pancreas)
1 to 5 mg/kg

Look up and report measured minimal effective dose (circulation of blood in internal organs (liver, pancreas)) for the following compound: COc1ccc(N(CCCC(=O)O)C(=O)c2ccc(Cl)cc2)cc1OC
1 mg/kg

Please respond with reported minimal effective dose (system circulation of blood in internal organs (liver, pancreas)) for Cc1cccc(C)c1N(CCCC(=O)O)C(=O)c1ccccc1Cl .
1 mg/kg

* * *

system: stomach ulcers; test: Anti-ulcerogenity: suppression of acetylsalicylic acid-induced stomach ulcers in rats; assay type: in vivo, rat (Sprague-Dawley, female); settings: 24 h; rat, oral, 30 min before 200 mg/kg acetylsalicylic acid, as sodium salt; read-out: Suppression of the formation of stomach ulcers by 100 % (dose)
Quantity Kind: ED100

1. COc1ccc(N(CCCC(=O)O)C(=O)c2ccc(Cl)cc2)cc1: ~10 mg/kg

Okay, next one:
Fill in reported ED100 for this entry: Cc1cccc(C)c1N(CCCC(=O)O)C(=O)c1ccc(Cl)cc1
1 to 5 mg/kg

* * *

tested on: stomach ulcers; test: Anti-ulcerogenity: suppression of acetylsalicylic acid-induced stomach ulcers in rats; assay type: in vivo, rat (Sprague-Dawley, female); settings: 24 h; rat, oral, 30 min before 200 mg/kg acetylsalicylic acid, as sodium salt; read-out: Suppression of the formation of stomach ulcers by 100 % (dose)
Quantity Kind: ED100

1. Cc1cccc(C)c1N(CCCC(=O)O)C(=O)c1ccccc1Cl [(8)]: ~30 mg/kg
2. COc1ccc(N(CCCC(=O)O)C(=O)c2ccccc2)cc1 [(2), N-benzoyl-γ-(p-anisidino)butyric acid]: 1.5 mg/kg
3. CCOc1ccc(N(CCCC(=O)O)C(=O)c2ccc(Cl)cc2)cc1 [(4)]: ~15 mg/kg

Read the entry COc1ccc(N(CCCC(=O)O)C(=O)c2ccc(Cl)cc2)cc1OC [(7)] and write its reported ED100.
~5 mg/kg
